species on record: Rattus norvegicus; assay: DrugMatrix - Regimen: Daily Repeat; format: toxicity, organism-based, Sprague-Dawley; design: regimen Daily Repeat, gender Male, age 6-8 weeks; settings: in vivo, sc, 0 mg/kg, 72 h, tissue Plasma, route subcutaneous, dose level Control, time 3 day, […]
Listed here: items and their measured LACTATE DEHYDROGENASE.
# output: bare number, implied unit u/L

Example cases with answers are listed next.
>>> readout_value("CCC(=O)O[C@]1(C(=O)CCl)[C@@H](C)C[C@H]2[C@@H]3CCC4=CC(=O)C=C[C@]4(C)[C@@]3(F)[C@@H](O)C[C@@]21C [CLOBETASOL PROPIONATE]")
214.67
>>> readout_value("CC(C)(C)CC(C)(C)c1ccc(OCCOCC[N+](C)(C)Cc2ccccc2)cc1.[Cl-] [BENZETHONIUM CHLORIDE]")
165
>>> readout_value("Oc1c(Cl)cc(Cl)c(Cl)c1Cc1c(O)c(Cl)cc(Cl)c1Cl [HEXACHLOROPHENE]")
165
>>> readout_value("CCN(CC)CCOCCC1=CCC2CC1C2(C)C (stereo not given) [MYRTECAINE]")
190.17

For the next question, use this compound.
**Query** Recorded LACTATE DEHYDROGENASE of O=C(Nc1ccc(Br)cc1)c1cc(Br)cc(Br)c1O [TRIBROMSALAN] , please.
**Result** 214.67

From: ChEMBL document CHEMBL3885881
